Reference for the values: the supplement of paper PMC9170038

Tested on: K4 kissing-loop RNA reporter;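 further: bound reporter read as fluorescence of individual clusters on recovered sequencing chips by microscopy, with normalized cluster intensities fitted with a binding model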
Assay: apparent KD of K4 kissing-loop reporter; higher = weaker reporter binding
Conditions: Eterna round: R107; input ligand: FMN 200 uM

input sequence | study system | apparent KD of K4 kissing-loop reporter
CGUGAAGACCAGAGGUGAUGUAUAGUAUCGCGAGGACCGGUACGGCCGCCACUCGUGAAGAGAAAGGAGUGAUGUUCCGUAAUGG [C12] | K4 kissing-loop RNA reporter | 246 nM
GUCCAAACACAGUGAUGUUGUGAAUAUGAAGGAGCGGACGAAAGUCCAGGUAGGUCGCAUAAAGGACACCUACGAAAAGUAGGAA [#SwitchBubble 5 #K4Early] | K4 kissing-loop RNA reporter | 172 nM
GGGUUUGACGGAGGAUAUGCACUGAGGAGGAGAAUAUAGUGAUGUUAUAUAAGAGGAAGGAGAAGAGUAGAAGGCCGUUGGGUUU [SSFMNB.L] | K4 kissing-loop RNA reporter | 124 nM
UAUUAAUUGUCAGGAUAUCGAAAUCGAGUGAUGUUCGUAUAUCGACGAUAGUCGAUAUUAUUUAUACGAGAAGGGACAUUAUUUA [JR_SSFMNB_Sub003] | K4 kissing-loop RNA reporter | 347 nM
ACGCGCGCGAGUGAUGUUCGGAGCGGCUGGCAGGAUAUGUAGCAAUGCAGAAGGGUCGUGGCGGGCGCGGCGAAAGCCGCGCCCG [#2 Exclusion - FMN A Attempt #6 (HarryS)] | K4 kissing-loop RNA reporter | 150 nM
AAGGGCAGGACUUCCUUGCCGGAUAGAGAUACCAGCCCAGCAAAGGGCCCUUGGCAGCUCACUGACCUCAGUGAUGUUGAGGUUC [Xebisoer] | K4 kissing-loop RNA reporter | 369 nM

----------
Tested on: MS2 coat protein
Assay: apparent KD of MS2 coat protein; designed switch direction (-1 OFF switch, 1 ON switch): -1; higher = weaker reporter binding
Conditions: input ligand: FMN 200 uM

input sequence | study system | apparent KD of MS2 coat protein / nM
GUUUAGCAAGCGAGAUCCCACAUGAGGAUCACCCAUGUGCAUCCAGAAUUACUGGGUGCAAAAGCUCGUCUUAUAUG [mod-El /newdang-1] (Eterna round: R97, puzzle: Sensor, turn-off variant 1) | MS2 coat protein | 71.8
CAGUACUGAGGAUAUACAUGAGGAUCACCCAUGUGAUUUAGUGCACGCGUACGUGUACGUAGAAGGCAGUACUG [JL 3.27 m1] (Eterna round: R97, puzzle: Exclusion 3) | MS2 coat protein | 182
CUAGGUCGAGGAUAUACAUGAGGAUCACCCAUGUCGGUUCCAUGAGAGCUAGACACUAGUAGAAGGCGGUAGGC [Eternabot (L2) Solution 60] (Eterna round: R97, puzzle: Exclusion 3) | MS2 coat protein | 26.1

----------
Tested on: MS2 coat protein
Experiment: apparent KD of MS2 coat protein, switch OFF state (with FMN for OFF switches, without FMN for ON switches); designed switch direction (-1 OFF switch, 1 ON switch): -1; higher = weaker reporter binding
Conditions: FMN input: 0 or 200 uM; Eterna round: R93 (includes R88 designs)
Label 1 when apparent KD of MS2 coat protein >= 60 nM; otherwise -1.

input sequence | study system | group label
AAUAAGUCAGGAUAUGCAAAUAAUAAAUAAAAUAAAAUAAAGCAGAAGGGACAUGAGGAUCACCCAUGUAAAUA [Opal 40] | MS2 coat protein | -1
AAAGGACGAGGAUAUACAUGAGGAUCACCCAUGUAAAAAACAUAGUAAAAGAGCUUGUGUAGAAGGCGUCCAAA [Meechl Ex3 2 R2 v8] | MS2 coat protein | 1
AAGAAGUGAGGAUAUCCAAAAGAAAAGAAAAGAAAAGAAAAGGAGAAGGCACAUGAGGAUCACCCAUGUAAGAA [Ankhkaenre Psamtik III] | MS2 coat protein | -1
AAGAAGCAAGGAUAUACAUGAGGAUCACCCAUGUAAAAGAAAGAAAAGGGAAAGAAAAGUAGAAGGUGCAAAGA [Ruby 69] | MS2 coat protein | 1
AAAAAUGGAGGAUAUACAUGAGGAUCACCCAUGUGUAACUAUACUAAGCACAAAAAAAGUAGAAGGCCAAAAAA [Gilly Gone Silly 9 - Jieux - Exclusion 3] | MS2 coat protein | -1
AAGUGGGCAGGAUAUACAUGAGGAUCACCCAUGUAAAGAAAAGAAAGAUCCGAAGAAAGUAGAAGGGCCUGCAA [Mod 1 of Ex3 sub 3, by Tesla's Dusciple Round 1] | MS2 coat protein | 1
